tested on: BT-549 breast; assay: NCI-60 one-dose screen, 48 h; settings: 10 µM unless noted
About 83,000 compounds went through this panel and 20% of them were active in at least one assay; those are over-represented in the sample as a whole. Active and inactive are the calls of the source. The calls were made as follows: active = growth percent below 10; inactive = the rest.
Give one outcome, nothing more. List: active, inactive

Q: Tell me the recorded outcome of this test for COc1ccc(-c2c(-c3cc(OC)c(OC)c(OC)c3)noc2N)cc1 .
Ans: inactive

Q: Now try Cc1ccccc1NC(=O)c1cc2ccccc2cc1O .
Ans: active

Q: Do the same for C=C1CC[C@@H]2[C@](C)(COC(C)=O)[C@H](OC(C)=O)CC[C@@]2(C)[C@@H]1CC(Nc1ccc(S(=O)(=O)Nc2cc(C)on2)cc1)C1=CCOC1=O (some centres not stated) please
Ans: inactive

Q: Another: COc1cc(/C=C2\COc3ccc(O)cc3C2=O)cc(OC)c1
Ans: inactive

Q: Also need Oc1ccccc1/C=N\Nc1ccccc1 , thanks.
Ans: inactive

Q: Follow-up entry: CCOC(=O)c1ccccc1OC(=O)NNc1ccccc1
Ans: inactive

Q: Another compound to check: Nc1nc(N)c([N+](=O)[O-])c(=O)[nH]1
Ans: inactive

Q: Then what about the compound COc1ccc2nc(NC(=O)c3cc(-c4ccc(F)cc4)n4nc(-c5ccccc5)cc4n3)sc2c1 ?
Ans: inactive

Q: And then COc1cc2c(c(OC)c1OC)CCc1cnoc1-2 , what is it?
Ans: inactive

Q: Also, OC(c1cc(C(F)(F)F)nc2c(C(F)(F)F)cccc12)C1CCCCN1 (configuration not stated) please.
Ans: inactive

Q: Follow-up item: OCCOc1c(Cl)cc(Cl)cc1Cl
Ans: inactive

Q: Now give it for NC(N)=NN=c1c(=O)c2ccccc2c1=O too.
Ans: inactive
